System: microorganisms
Assay: Morphology, biofilm and growth disrupting peptides (Table 5)
Format: cell-based
Set-up: key: A: Peptide aggregates; B: Less hyphal formation; Clumps; Diffuse clumps and small polyps; F: Diffuse growth; H: Thin; I: Growth inhibition; Microcolony formation; Rippled; Small polyps; Thick; W: Halo formation on top, microlonies on bottom
Settings: P. aeruginosa
Ends that are not written are not given here.
MEASURED METRIC: Organism, effect

Example entries and their recorded answers appear below.
# SUBSTANCE, Organism, effect
rows = [
    ("LNFRAENKILEKIHISLIDTVEGSA [PF-575]", "P. aeruginosa (A)"),
    ("PF-458: peptide having multiple activities (ISLIIFIMLFVVALFKCITNYKHQS; Peptide with targeting and/or antimicrobial activity)", "P. aeruginosa (H)"),
    ("PF-746: peptide having multiple activities (FLGNSQYFTRK; Peptide with targeting and/or antimicrobial activity)", "P. aeruginosa (A)"),
    ("PF-535 (NIKTRKRALKIIKQHQRSK; Peptide with targeting and/or antimicrobial activity)", "P. aeruginosa (H)"),
    ("PF-577: peptide having multiple activities (PFETRESFRVPVIGILGGWDYFMHP; Peptide with targeting and/or antimicrobial activity)", "P. aeruginosa (A)"),
]

**Q:** What does the data say about its Organism, effect? Entry: YIQFHLNQQPRPKVKKIKIFL-NH2 [PF-531]
**A:** P. aeruginosa (I)

**Q:** What does the data say about its Organism, effect? Entry: PF-425: peptide having multiple activities (chain 1 MMELVLKTIIGPIVVGVVLRIVDKWLNKDK; chain 2 MMELVLKTIIGPIVVGVVLRIVDKWLNKDK; Peptide with targeting and/or antimicrobial activity)
**A:** P. aeruginosa (A)

**Q:** What does the data say about its Organism, effect? Entry: PF-474: peptide having multiple activities (MHRNLVLVKMEPIPHIMIIANQIGIIIEKA; Peptide with targeting and/or antimicrobial activity)
**A:** P. aeruginosa (A)

**Q:** What does the data say about its Organism, effect? Entry: PF-605: peptide having multiple activities (chain 1 HYRWNTQWWKY; chain 2 HYRWNTQWWKY; Peptide with targeting and/or antimicrobial activity)
**A:** P. aeruginosa (A)

**Q:** What does the data say about its Organism, effect? Entry: PF-432: peptide having multiple activities (chain 1 FNGDSEFFLCIAF; chain 2 FNGDSEFFLCIAF; Peptide with targeting and/or antimicrobial activity)
**A:** P. aeruginosa (A)

====

System: microorganisms
Experiment: Targeting peptide binding to target microorganisms (Tables 3, 10, 12)
Settings: microorganism(s) the targeting peptide binds; binding in aqueous buffers varied with peptide solubility, preferably 1x PBS

# SUBSTANCE, Target(s)
measured = [
    ("PF-692 (GVAREDPLEPDPLAPIIDDSR; Peptide with targeting and/or antimicrobial activity)", "Mycobacteria spp"),
    ("PF-700 (LNWPFTGR; Peptide with targeting and/or antimicrobial activity)", "Mycobacteria spp"),
]

====

System: microorganisms
Test: Morphology, biofilm and growth disrupting peptides (Table 5)
Assay type: cell-based
Design: key: A: Peptide aggregates; B: Less hyphal formation; Clumps; Diffuse clumps and small polyps; F: Diffuse growth; H: Thin; I: Growth inhibition; Microcolony formation; Rippled; Small polyps; Thick; W: Halo formation on top, microlonies on bottom
Details: E. faecalis
From the text: In certain embodiments peptides that induce alterations in phenotype or other biological activities can also be used as antimicrobial effector moieties.
MEASURED METRIC: Organism, effect: E. faecalis

Example entries and their recorded answers appear below.
# SUBSTANCE, OBSERVED RESULT
measured = [
    ("PF-411: peptide having multiple activities (chain 1 WVAVAILLNIALQTQLT; chain 2 WVAVAILLNIALQTQLT; Peptide with targeting and/or antimicrobial activity)", "E. faecalis (D)"),
    ("PF-410: peptide having multiple activities (chain 1 FALELIALCRNLFIVYFP; chain 2 FALELIALCRNLFIVYFP; Peptide with targeting and/or antimicrobial activity)", "E. faecalis (C)"),
    ("PF-363: peptide having multiple activities (chain 1 SMLSVTVMCLMHASVAANQAMEKKV; chain 2 SMLSVTVMCLMHASVAANQAMEKKV; Peptide with targeting and/or antimicrobial activity)", "E. faecalis (D)"),
    ("PF-399: peptide having multiple activities (chain 1 FPIISALLGAIICIAIYSFIVNRKA; chain 2 FPIISALLGAIICIAIYSFIVNRKA; Peptide with targeting and/or antimicrobial activity)", "E. faecalis (C)"),
    ("PF-374: peptide having multiple activities (chain 1 HLFFVKGMFILCQKNQINDE; chain 2 HLFFVKGMFILCQKNQINDE; Peptide with targeting and/or antimicrobial activity)", "E. faecalis (C)"),
]

**Q:** Record lookup: for microorganisms, what Organism, effect: E. faecalis belongs to PF-355: peptide having multiple activities (chain 1 WIAIGLLLYFSLKNQ; chain 2 WIAIGLLLYFSLKNQ; Peptide with targeting and/or antimicrobial activity) ?
**A:** E. faecalis (D)

**Q:** Record lookup: for microorganisms, what Organism, effect: E. faecalis belongs to PF-401: peptide having multiple activities (chain 1 YWLSRVTTGHSFAFEKPVPLSLTIK; chain 2 YWLSRVTTGHSFAFEKPVPLSLTIK; Peptide with targeting and/or antimicrobial activity) ?
**A:** E. faecalis (C)

====

Test system: microorganisms
Experiment: Morphology, biofilm and growth disrupting peptides (Table 5)
Assay type: cell-based
Parameters: key: A: Peptide aggregates; B: Less hyphal formation; Clumps; Diffuse clumps and small polyps; F: Diffuse growth; H: Thin; I: Growth inhibition; Microcolony formation; Rippled; Small polyps; Thick; W: Halo formation on top, microlonies on bottom
Conditions: S. pneumoniae
MEASURED METRIC: Organism, effect

# SUBSTANCE, MEASURED METRIC, OBSERVED RESULT
rows = [
    ("PF-646 (chain 1 APASPGRRPG; chain 2 APASPGRRPG; Peptide with targeting and/or antimicrobial activity)", "Organism, effect", "S. pneumoniae (H)"),
    ("PF-421: peptide having multiple activities (chain 1 KHCFEITDKTDVV; chain 2 KHCFEITDKTDVV; Peptide with targeting and/or antimicrobial activity)", "Organism, effect", "S. pneumoniae (H)"),
]

====

Tested on: microorganisms
Assay: Morphology, biofilm and growth disrupting peptides (Table 5)
Format: cell-based
Design: key: A: Peptide aggregates; B: Less hyphal formation; Clumps; Diffuse clumps and small polyps; F: Diffuse growth; H: Thin; I: Growth inhibition; Microcolony formation; Rippled; Small polyps; Thick; W: Halo formation on top, microlonies on bottom
Conditions: P. gingivalis
MEASURED METRIC: Organism, effect

Example entries and their recorded answers appear below.
# SUBSTANCE, MEASURED ON, Organism, effect
records = [
    ("PF-C088: peptide having multiple activities (DIANNILNSVSERLIIA; Peptide with targeting and/or antimicrobial activity)", "microorganisms", "P. gingivalis (R)"),
    ("PF-C136: peptide having multiple activities (chain 1 LILSYQASVYPLFAYLCQQKDY; chain 2 LILSYQASVYPLFAYLCQQKDY; Peptide with targeting and/or antimicrobial activity)", "microorganisms", "P. gingivalis (R)"),
    ("PF-C075: peptide having multiple activities (KALVISVFAIVFSIIFVKFFYWRDKK; Peptide with targeting and/or antimicrobial activity)", "microorganisms", "P. gingivalis (R)"),
    ("PF-C089 (MPKRHYYKLEAKALQFGLPFAYSPIQLLK; Peptide with targeting and/or antimicrobial activity)", "microorganisms", "P. gingivalis (R)"),
    ("PF-C293 (IIIILPKIYLVCKTV; Peptide with targeting and/or antimicrobial activity)", "microorganisms", "P. gingivalis (R)"),
]

**Q:** What does the data say about its Organism, effect? Entry: PF-C084: peptide having multiple activities (FFSVIFLFGLNYLICNSPLFNILR; Peptide with targeting and/or antimicrobial activity)
**A:** P. gingivalis (R)

====

Tested on: microorganisms
Experiment: Targeting peptide binding to target microorganisms (Tables 3, 10, 12)
Settings: microorganism(s) the targeting peptide binds; binding in aqueous buffers that varied with peptide solubility, preferably 1x PBS
MEASURED METRIC: Target(s)

# SUBSTANCE, MEASURED ON, MEASURED METRIC, OBSERVED RESULT
data = [
    ("TT-308 (GLVIIPNLIALIILFSQVRQQTKDYFSNPKLSSR; Peptide with targeting and/or antimicrobial activity)", "microorganisms", "Target(s)", "F. nucleatum"),
    ("TT-310 (TKLKKNNKLLSAKKENTLHTKDK; Peptide with targeting and/or antimicrobial activity)", "microorganisms", "Target(s)", "F. nucleatum"),
]

====

Test system: microorganisms
Experiment: Peptide activities: targeting/binding, antimicrobial, growth or phenotype altering (Tables 7, 8)
Type: cell-based
Details: peptides having multiple activities

# SUBSTANCE, Activities
measured = [
    ("PF-634: peptide having multiple activities (chain 1 MPKARPVNHNKKKSKITIKSNFTLFYMFNP; chain 2 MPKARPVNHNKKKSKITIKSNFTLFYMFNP; Peptide with targeting and/or antimicrobial activity)", "G B"),
    ("PF-C084: peptide having multiple activities (FFSVIFLFGLNYLICNSPLFNILR; Peptide with targeting and/or antimicrobial activity)", "G B"),
]
